Data origin, for the record: patent US8987314B2

Recorded IC50 values for a group of compounds are listed next.
# target entity: hepatic lipase (HL) (Homo sapiens (Human), UniProt P11150)
# Sequence (P11150 23-499, species assumed): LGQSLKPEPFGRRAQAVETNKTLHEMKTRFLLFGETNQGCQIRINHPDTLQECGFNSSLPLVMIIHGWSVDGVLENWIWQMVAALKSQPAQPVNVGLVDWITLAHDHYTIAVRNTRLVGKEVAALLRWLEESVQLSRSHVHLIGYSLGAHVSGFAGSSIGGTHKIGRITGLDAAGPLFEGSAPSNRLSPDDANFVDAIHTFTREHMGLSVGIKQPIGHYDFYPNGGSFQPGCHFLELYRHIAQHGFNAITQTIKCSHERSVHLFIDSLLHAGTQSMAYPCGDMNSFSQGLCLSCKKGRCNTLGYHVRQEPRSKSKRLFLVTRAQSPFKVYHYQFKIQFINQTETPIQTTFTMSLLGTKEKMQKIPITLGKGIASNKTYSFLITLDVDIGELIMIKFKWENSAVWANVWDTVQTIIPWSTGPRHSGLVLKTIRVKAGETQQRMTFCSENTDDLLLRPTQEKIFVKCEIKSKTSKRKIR
# run description: HL assay: hepatic lipase activity with fluorescent substrate A10070 in DMPG vesicles
# Type: biochemical
# experimental context: HL partially purified from conditioned media of COS cells; 30 min incubation with compound at 37° C.; A10070/DMPG vesicles
measure: IC50 (µM)

compound="CS(=O)(=O)C(C(=O)NCCS(N)(=O)=O)c1nc2ccc(-c3nnc(-c4ccc(F)cc4)o3)cc2s1 (centres unmarked)" result_unit=µM numeric_value=0.275
compound="CC(C)(C)OC(=O)c1ccc2sc(C(C(=O)NCCS(N)(=O)=O)S(C)(=O)=O)nc2c1 (centres unmarked)" result_unit=µM numeric_value=0.0534
compound="CS(=O)(=O)C(C(=O)NCCS(N)(=O)=O)c1nc2ccc(-c3ccc(C(=O)O)cc3)cc2s1 (centres unmarked)" result_unit=µM numeric_value=0.274
compound="CS(=O)(=O)C(C(=O)NCCS(N)(=O)=O)c1nc2cc(C(=O)O)ccc2s1 (centres unmarked)" result_unit=µM numeric_value=0.0927
compound="CC(C)(C)OC(=O)c1ccc2nc(C(C(=O)NCCS(N)(=O)=O)S(=O)(=O)CCC(F)(F)F)sc2c1 (centres unmarked)" result_unit=µM numeric_value=0.379
